assay: chemical genetic growth profiling, strain panel (AID 1159580);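 note: tested at 20 µM; growth read once vehicle control cultures reached saturation at 30 °C; 1 = growth at the plate median or of vehicle wells; lower values mean less growth of the strain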; settings: S. cerevisiae deletion strains, growth OD, locus YIL147C, strain SLN1
Hit rate of the full screen: of about 5,500 compounds, about 2,000 (36%) were called active. Not shown: some 18% with an inconclusive outcome. Cut-off read from the data, not from the text of the source: active = normalized growth mostly below about 0.91 (no sharp cut-off); inconclusive = no clear call, values can overlap the other calls; inactive = mostly above about 0.92. Some of the results follow.
Result category, one only: active, inactive

Recorded results for 6 compounds are shown here.
compound: O=[N+]([O-])c1ccc2oc(C(O)c3ccc(-c4ccccc4)cc3)cc2c1 (stereo not drawn)
class_assignment: inactive
//
compound: Cc1nc(-c2ccc(S(=O)(=O)Nc3ccc(Br)cc3Cl)s2)cs1
class_assignment: inactive
//
compound: O=C(Nc1ccc(OC(F)(F)F)cc1)N1CCN(c2nc(-c3ccccc3)ns2)CC1
class_assignment: inactive
//
compound: Cc1ccc(NS(=O)(=O)c2ccc(Cl)cc2)c(N=Cc2cc(Cl)cc(Cl)c2O)c1
class_assignment: inactive
//
compound: Cc1onc(-c2c(Cl)cccc2Cl)c1C(=O)NNc1c(Cl)cccc1Cl
class_assignment: inactive
//
compound: Cc1onc(-c2c(F)cccc2Cl)c1C(=O)NNc1cc(Cl)cc(Cl)c1
class_assignment: inactive

*Q* Please let me know the test result on file for Cc1ccc(NNC(=O)c2c(C)noc2C)cc1Cl .
*A* inactive

*Q* Recorded test outcome, item Cc1cccc(NC(=S)NNC(=O)CSCc2cccc3ccccc23)c1
*A* inactive

*Q* State the result this test recorded for Cc1onc(-c2c(F)cccc2Cl)c1C(=O)ON=C1C2CC3CC(C2)CC1C3 .
*A* active

###

test: chemical genetic growth profiling, strain panel (AID 1159580); conditions: S. cerevisiae deletion strains, growth OD, locus YEL003W, strain gim4, active compounds read low
Out of some 5,500 compounds screened, about 2,000 (36%) were called active. Inconclusive results (about 18%) are left out. The list shows a part of the results.
observation_type: normalized growth
Please reply with the number alone, leaving off any unit.

compound: O=c1[nH]oc2c1CCNC2
normalized growth: 0.998
--
compound: CC(C(=O)O)c1ccc(C(=O)c2cccs2)cc1 (centres undefined)
normalized growth: 0.987
--
compound: C=C1C(=O)O[C@@H]2C[C@@]3(C)CCC[C@H](C)C3=C[C@H]12
normalized growth: 0.715

For reference, reported normalized growth for CC(C)NCC(O)c1cc(O)cc(O)c1 (centres undefined) stands at 1

Entry O=C1[C@H](CCC(O)c2ccc(F)cc2)[C@@H](c2ccc(O)cc2)N1c1ccc(F)cc1 (some centres undefined) — recorded normalized growth = 0.975

// recorded normalized growth for O=C1OC2(c3ccc(O)cc3Oc3cc(O)ccc32)c2ccccc21 : 1.01

The recorded normalized growth for entry COC(=O)C(O)c1ccccc1 (centres undefined) equals 0.99

Sample CC(=O)N[C@@H](CS)C(=O)O ; normalized growth observed: 1.01

Query C=C1CCC(OC(C)=O)/C(C)=C/C[C@@H]2[C@@H]1CC2(C)C (some centres undefined) yields normalized growth of 1.02

###

The entries below come with measured normalized growth values attached.
assay: chemical genetic growth profiling, strain panel (AID 1159580); conditions: S. cerevisiae deletion strains, growth OD, locus YNL298W, strain CLA4 (second series), active compounds read low
Screen size: about 5,500 compounds; about 2,000 (36%) were called active. Another 18% or so got no clear call; they are omitted. This is one part of the list.
Write no unit; give the number alone.

Below are worked cases with known answers.
smiles_repr: N#C/C(=C\c1cccn1-c1ccc(OC(F)(F)F)cc1)S(=O)(=O)c1ccccc1
normalized growth: 1.03

smiles_repr: O=C1CCC(c2cccs2)=NN1
normalized growth: 1.01

smiles_repr: COc1ccccc1N=C(N)SCc1ccccc1
normalized growth: 0.998

The compound listed as CCN(CC)CCNC(=O)c1c(-c2c(Cl)cccc2Cl)noc1C has a reported normalized growth of 1.05

Sample Cc1cc(NC(=O)c2c(-c3c(Cl)cccc3Cl)noc2C)c([N+](=O)[O-])cc1C ; normalized growth observed: 1.04

Per the record, N#CCC(=O)Nc1ccccn1 has normalized growth of 1.06

The compound Cc1onc(-c2c(Cl)cccc2Cl)c1C(=O)Oc1ccc(Cl)c(Cl)c1 showed normalized growth equal to 1.01

Please fill in: normalized growth reported for Clc1ccc(C2=CSC3=NCCCN23)cc1 = 1.04

GET /value?item= O=C(CSCc1cccc2ccccc12)NNC(=S)Nc1ccccc1Cl &field=normalized growth returns 0.564

normalized growth recorded for this compound, CC(=O)CC(=O)Nc1ccccc1Cl , is 1

Looking up Cc1ccc(NS(C)(=O)=O)cc1N=Cc1ccc(Cl)c(Cl)c1 , I found its normalized growth recorded as 0.866

normalized growth reported for this compound Nc1ccc(N=Nc2ccc(S(N)(=O)=O)cc2)c2ccccc12 : 0.982

According to the records, this compound O=C(c1ccc(-c2ccccc2)cc1)c1cc2cc([N+](=O)[O-])ccc2o1 displays normalized growth of 0.996

Record O=C(CSCc1cccc2ccccc12)NNC(=O)c1ccc(F)cc1 , field normalized growth: 0.949

###

assay: chemical genetic growth profiling, strain panel (AID 1159580); settings: S. cerevisiae deletion strains, growth OD, locus YOL012C, strain htz1
Hit rate of the full screen: of about 5,500 compounds, about 2,000 (36%) were called active. Not shown: some 18% with an inconclusive outcome. This is one part of the list.
normalized growth overview
Number only, no unit.

Below: 3 molecules and their reported normalized growth.
molecule: CC(C)COCC(CN(Cc1ccccc1)c1ccccc1)N1CCCC1 (centres undefined)
normalized growth: 0.611

molecule: O=C1CC2OCC=C3CN4CC[C@]56c7ccccc7N1C5[C@H]2[C@H]3CC46 (some centres undefined)
normalized growth: 1.63

molecule: O=C(O)c1cc2cc(Cc3cccnc3)ccc2o1
normalized growth: 1.18

So for CCCCCCOc1ccccc1C(N)=O , the logged normalized growth turned out to be 0.5

###

experiment: chemical genetic growth profiling, strain panel (AID 1159580); settings: S. cerevisiae deletion strains, growth OD, locus YKL193C, strain SDS22, active compounds read low
Hit rate of the full screen: of about 5,500 compounds, about 2,000 (36%) were called active. Not shown: some 18% with an inconclusive outcome. Some of the results follow.
observation_type: normalized growth
Answer as a number with no unit attached.

These solved cases illustrate the format of a correct answer.
smiles_repr: CC(=O)Nc1ccc(S(=O)(=O)Nc2ccccc2Oc2ccc(Cl)cc2Cl)cc1
number: 0.994
//
smiles_repr: CCCCN(C)C(=O)c1cc([N+](=O)[O-])cc2c1-c1ccc([N+](=O)[O-])cc1C2=C(C#N)C#N
number: 0.977
//
smiles_repr: O=[N+]([O-])c1ccc(Sc2ssc(=S)c2-c2ccccc2)nc1
number: 0.933

# ---- query compound ----
normalized growth for Cc1c(C(=S)Nc2ccccc2)sc2ccccc12 is 0.94

###

normalized growth values for the compounds below.
assay: chemical genetic growth profiling, strain panel (AID 1159580);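 note: tested at 20 µM; growth read once vehicle control cultures reached saturation at 30 °C; 1 = growth at the plate median or of vehicle wells; lower values mean less growth of the strain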; settings: S. cerevisiae deletion strains, growth OD, locus YJL187C, strain SWE1 (second series), active compounds read low
About 2,000 (36%) of roughly 5,500 compounds were called active. About 18% were inconclusive and are not listed. Some of the results follow.
A bare number is all that is needed in reply.

# example entries with known answers
compound: C/C1=C\CCC(=O)C2CC(C)(C)C2CC1 (stereo not drawn)
normalized growth: 1.04
--
compound: CC1(C)C2(Cl)C(Cl)C(Cl)C(Cl)(C(Cl)Cl)C1(Cl)C2Cl (stereo not drawn)
normalized growth: 0.983

// below: normalized growth requested for another compound
Record COC(=O)C[C@H]1C(C)(C)C(=O)[C@@H]2CC3=C(CC[C@]4(C)C3=CC(=O)O[C@H]4c3ccoc3)[C@@]1(C)C2=O . Reported normalized growth: 1.01

###

test: chemical genetic growth profiling, strain panel (AID 1159580);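 note: tested at 20 µM; growth read once vehicle control cultures reached saturation at 30 °C; 1 = growth at the plate median or of vehicle wells; lower values mean less growth of the strain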; details: S. cerevisiae deletion strains, growth OD, locus YLR133W, strain CKI1
The whole screen tested about 5,500 compounds, of which about 2,000 (36%) were called active. Not shown: some 18% with an inconclusive outcome. No stated cut-off is given here; in the data, active means normalized growth mostly below about 0.91 (no sharp cut-off); inconclusive means no clear call, values can overlap the other calls; inactive means mostly above about 0.92. This is one part of the list.
Please reply with one of these outcomes: active, inactive

smiles_repr: O=[N+]([O-])c1ccc(Sc2ssc(=S)c2-c2ccccc2)nc1
class_assignment: active

smiles_repr: CCCCCCCCCCCC(=O)NOC(=O)c1c(-c2c(Cl)cccc2Cl)noc1C
class_assignment: inactive

Next item in the queue.
*Q* Hi, do you know how Cc1onc(-c2c(Cl)cccc2Cl)c1C(=O)NC(C)(C)CC(C)(C)C came out in this test?
*A* inactive

###

test: chemical genetic growth profiling, strain panel (AID 1159580);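 note: tested at 20 µM; growth read once vehicle control cultures reached saturation at 30 °C; 1 = growth at the plate median or of vehicle wells; lower values mean less growth of the strain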; settings: S. cerevisiae deletion strains, growth OD, locus YLR039C, strain RIC1, active compounds read low
The campaign covered roughly 5,500 compounds. About 2,000 (36%) were called active. Roughly 18% stayed inconclusive and do not appear here. This is one part of the list.
normalized growth by entry:
# output: bare number, no unit

Below, each entry is followed by its recorded normalized growth result.
compound: Oc1ccc(Cl)cc1
normalized growth: 0.983

compound: COc1ccccc1N=C(N)SCc1ccccc1
normalized growth: 1.02

compound: Nc1nc2ncc(=O)[nH]c2c(=O)[nH]1
normalized growth: 0.997

compound: COC(=O)C(O)c1ccccc1 (stereo not given)
normalized growth: 1

compound: CC1(C)NC(=O)N(c2ccc([N+](=O)[O-])c(C(F)(F)F)c2)C1=O
normalized growth: 0.984

# normalized growth of CC(C)(C)CC(C)(C)c1ccc(O)c(Cc2ccc(Cl)cc2Cl)c1 = 0.985
